Phage binding ELISA, Anti-CD28 Fab signal in the presence of CD28 listing for selected binders.
molecular target: T1, Anti-CD28 Fab (SEQ ID NOs: 696, 697); assay: phage ELISA; as above with CD28 antigen as competitor pre-incubated on the Fab coated wells
T1 construct: Biotinylated and captured on neutravidin coated plates in the phage ELISA
T1 sequence (VH, as listed by the source, chain 1 of 2): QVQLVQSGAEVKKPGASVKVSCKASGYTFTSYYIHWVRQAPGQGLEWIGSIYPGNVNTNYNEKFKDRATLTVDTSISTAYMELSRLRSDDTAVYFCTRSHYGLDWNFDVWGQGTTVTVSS
T1 sequence (VL, as listed by the source, chain 2 of 2): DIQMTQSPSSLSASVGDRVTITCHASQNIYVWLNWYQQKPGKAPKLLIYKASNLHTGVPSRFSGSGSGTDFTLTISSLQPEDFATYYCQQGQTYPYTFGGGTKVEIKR
Measured Metric: Phage binding ELISA, Anti-CD28 Fab signal in the presence of CD28

Binder	Observed Result
YCAGHSPLYMLKCL (Tested as clonal phage supernatant) [Phage-892 (Peptide-87 library clone, YCAGHSPLYMLKCL)]	0.1
YCEGHSAEYMQKCL (Tested as clonal phage supernatant) [Phage-893 (Peptide-87 library clone, YCEGHSAEYMQKCL)]	0.29
YCDGHSPAYIWKCL (Tested as clonal phage supernatant) [Phage-900 (Peptide-87 library clone, YCDGHSPAYIWKCL)]	0.08
YCDGHAIEYMAKCL (Tested as clonal phage supernatant) [Phage-896 (Peptide-87 library clone, YCDGHAIEYMAKCL)]	0.08
YCDGHLPVYLEKCL (Tested as clonal phage supernatant) [Phage-894 (Peptide-87 library clone, YCDGHLPVYLEKCL)]	0.06
YCDGHSEQYMSKCL (Tested as clonal phage supernatant) [Phage-901 (Peptide-87 library clone, YCDGHSEQYMSKCL)]	0.07
YCDGHAWEYMTKCL (Tested as clonal phage supernatant) [Phage-898 (Peptide-87 library clone, YCDGHAWEYMTKCL)]	0.35
YCDGHSTEYMEKCL (Tested as clonal phage supernatant) [Phage-903 (Peptide-87 library clone, YCDGHSTEYMEKCL)]	0.08

Data origin, for the record: patent US20260242478A1
